Recorded CONCENTRATION REGION restoring Hedgehog signaling activity for the following molecules
test system: Hedgehog signaling activity; experiment: Gli-luciferase reporter assay in rat hepatic stellate cell line; format: cell-based; details: alcohol-treated hepatic stellate cells

Look over these answered cases.
Input line: Item under review: CC(C)CCC[C@](C)(O)[C@H]1CC[C@H]2[C@@H]3CC=C4C[C@@H](O)CC[C@]4(C)[C@H]3CC[C@@]21C [20α-Hydroxycholesterol, 20-hydroxycholesterol] . Reported CONCENTRATION REGION restoring Hedgehog signaling activity?
Output line: 0.1 to 100 µM

Input line: Also check C[C@H](CCCC(C)(C)O)[C@H]1CC[C@H]2[C@@H]3CC=C4C[C@@H](O)CC[C@]4(C)[C@H]3CC[C@]12C [25-hydroxycholesterol, 5-cholestene-3b,25-diol]
Output line: 0.1 to 100 µM

Input line: Also check CC(C)CCC(O)[C@@H](C)[C@H]1CC[C@H]2[C@@H]3CC=C4C[C@@H](O)CC[C@]4(C)[C@H]3CC[C@]12C (stereo partly drawn) [22(S)-Hydroxycholesterol, 5-cholestene-3b,22-diol]
Output line: 0.1 to 100 µM

Turning now to a further record.
Input line: Item under review: "CC(C)CCC[C@@H](C)[C@H]1CC[C@H]2[C@@H]3CC=C4C[C@@H](O)CC[C@]4(C)[C@H]3CC[C@]12C" . Reported CONCENTRATION REGION restoring Hedgehog signaling activity?
Output line: 1 to 50 µM
